Provenance of the data: patent US20220162338A1

Overview of recorded koff for various binders
- experimental.target: T1, human FXI (human coagulation Factor XI) (human, UniProt P03951 19-625)
- T1 construct: Bought protein; Biotin-labeled form (HCXI-0150-B) was used in the hybridoma screen; also called FXI protein; FXI antigen
- test.details: BLI (Octet Fortebio), antibody on AHC (anti-human-Fc) sensor, FXI in solution
Unit s⁻¹ implied. Number only.

1) humanized antibody 36G9.10-hz74 (antibody, human IgG1, kappa, N297A, V domains shown) VH: EVQLVQSGAEVKKPGATVKISCKASGFNIKDTYIHWVQQAPGKGLEWMGRIDPANDNTIYAEKFQGRVTITADTSTNTAYMELSSLRSEDTAVYYCAQDYDGFAMDYWGQGTLVTVSS VL: DIQMTQSPSSLSASVGDRVTITCKASQDINKYITWYQQKPGKAPKLLIYYTSTLQPGVPSRFSGSGSGTDFTFTISSLQPEDIATYYCLQYDYLLTFGGGTKVEIKR; 5.16e-05
2) BAY-1213790 (antibody, V domains shown) VH: EVQLLESGGGLVQPGGSLRLSCAASGFTFSQYGMDWVRQAPGKGLEWVSGIGPSGGSTVYADSVKGRFTISRDNSKNTLYLQMNSLRAEDTAVYYCTRGGPYYYYGMDVWGQGTTVTVSS VL: DIQMTQSPSSLSASVGDRVTITCQASQDISNYLNWYQQKPGKAPKLLIYDASNLETGVPSRFSGSGSGTDFTFTISSLQPEDIATYYCQQADSFPVTFGGGTKVEIKR; 0.00034
3) humanized antibody 36G9.10-hz92 (antibody, human IgG1, kappa, N297A, V domains shown) VH: EVQLVQSGAEVKKPGATVKISCKASGFNIKDTYIHWVQQAPGKGLEWIGRIDPANDNTKYDPKFQGRVTITADTSTNTAYMELSSLRSEDTAVYYCAQDYDGFAMDYWGQGTLVTVSS VL: DIQMTQSPSSLSASVGDRVTITCKASQDINKYITWFQQKPGKAPKLLIHYTSTLQPGVPSRFSGSGSGTDFTLTISSLQPEDFATYYCLQYDYLLTFGGGTKVEIKR; 7.69e-05
4) chimeric antibody 36G9.10-hz00 (antibody, human IgG1, kappa, N297A, V domains shown, Murine variable regions grafted to human IgG1 (N297A) and human kappa constant regions) VH: EVQLQQSGAELVKPGASVKLSCTASGFNIKDTYIHWVKQRPEQGLEWIGRIDPANDNTKYDPKFQGKATITADTSSNTAYLQLSSLTSEDSAVYYCAQDYDGFAMDYWGQGTSVTVSS VL: DIQMTQSPSSLSASLGGKVTITCKASQDINKYITWFQHKPGKGPRLLIHYTSTLQPGIPSRFSGSGSGRDYSFSISNLEPEDSATYYCLQYDYLLTFGGGTKLEIKR; 2.39e-05
5) humanized antibody 36G9.10-hz73 (antibody, human IgG1, kappa, N297A, V domains shown) VH: EVQLVQSGAEVKKPGATVKISCKASGFNIKDTYIHWVQQAPGKGLEWMGRIDPANDNTIYAEKFQGRVTITADTSTNTAYMELSSLRSEDTAVYYCAQDYDGFAMDYWGQGTLVTVSS VL: DIQMTQSPSSLSASVGDRVTITCKASQDINKYITWFQQKPGKAPKLLIHYTSTLQPGVPSRFSGSGSGRDYTLTISSLQPEDFATYYCLQYDYLLTFGGGTKVEIKR; 6.51e-05

Q. What value of measured koff is listed for humanized antibody 36G9.10-hz43 (antibody, human IgG1, kappa, N297A, V domains shown) VH: QVQLVQSGAEVKKPGASVKVSCKASGFNIKDTYIHWVRQAPGQGLEWIGRIDPANDNTNYAQKFQGRVTMTADTSINTAYMELSRLRSDDTAVYYCAQDYDGFAMDYWGQGTLVTVSS VL: DIQMTQSPSSLSASVGDRVTITCKASQDINKYITWFQQKPGKAPKLLIHYTSTLQPGVPSRFSGSGSGRDYTLTISSLQPEDFATYYCLQYDYLLTFGGGTKVEIKR ?
A. 0.000255

Q. Look up koff for this binder: humanized antibody 36G9.10-hz93 (antibody, human IgG1, kappa, N297A, V domains shown) VH: EVQLVQSGAEVKKPGATVKISCKASGFNIKDTYIHWVQQAPGKGLEWIGRIDPANDNTKYDPKFQGRVTITADTSTNTAYMELSSLRSEDTAVYYCAQDYDGFAMDYWGQGTLVTVSS VL: DIQMTQSPSSLSASVGDRVTITCKASQDINKYITWFQQKPGKAPKLLIHYTSTLQPGVPSRFSGSGSGRDYTLTISSLQPEDFATYYCLQYDYLLTFGGGTKVEIKR
A. 5.34e-05
